TARGET DESC: Plasmin (Homo sapiens, UniProt P00747)
Sequence (P00747 581-810 limits assumed): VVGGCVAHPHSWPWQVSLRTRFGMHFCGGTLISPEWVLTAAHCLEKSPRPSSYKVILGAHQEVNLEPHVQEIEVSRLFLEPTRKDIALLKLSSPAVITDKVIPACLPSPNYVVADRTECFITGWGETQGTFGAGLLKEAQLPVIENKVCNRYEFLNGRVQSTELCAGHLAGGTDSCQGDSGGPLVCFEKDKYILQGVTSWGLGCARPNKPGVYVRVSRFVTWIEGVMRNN
Sequence (P00747 97-580 partner limits assumed): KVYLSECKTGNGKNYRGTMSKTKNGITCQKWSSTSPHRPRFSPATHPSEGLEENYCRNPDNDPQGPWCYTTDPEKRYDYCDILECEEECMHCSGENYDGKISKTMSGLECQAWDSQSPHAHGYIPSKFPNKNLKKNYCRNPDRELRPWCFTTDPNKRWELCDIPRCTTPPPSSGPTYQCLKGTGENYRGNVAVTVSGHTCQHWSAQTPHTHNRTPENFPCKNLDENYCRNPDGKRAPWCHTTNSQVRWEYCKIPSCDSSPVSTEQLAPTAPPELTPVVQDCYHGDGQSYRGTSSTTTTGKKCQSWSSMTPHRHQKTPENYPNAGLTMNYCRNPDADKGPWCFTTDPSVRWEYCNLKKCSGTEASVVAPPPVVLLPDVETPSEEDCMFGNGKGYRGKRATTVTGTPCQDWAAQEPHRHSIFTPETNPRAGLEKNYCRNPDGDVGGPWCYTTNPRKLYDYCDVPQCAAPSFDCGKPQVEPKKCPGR
pIC50: −log10 of the molar value.

[
  {
    "COMPOUND": "Nc1nccc2c(NCC34CC(COc5ccn6cnnc6c5)(CCO3)C4)cccc12 [Example 10926]",
    "pIC50": "< 4.40"
  },
  {
    "COMPOUND": "Nc1nccc2c(NCC34CC(COc5ccc6nnc(C(F)F)n6c5)(CO3)C4)cccc12 [Example 6620]",
    "pIC50": "< 4.40"
  },
  {
    "COMPOUND": "Cn1ccc(OCC23CN(C(=O)Nc4ccccc4)C(CNc4cccc5c(N)nccc45)(C2)C3)cc1=O [Example 12036]",
    "pIC50": "5.00 to 5.52"
  },
  {
    "COMPOUND": "Nc1nccc2c(NCC34CC(COC5CCn6ccnc6C5)(C3)C4)cccc12 (racemic) [Example 1002]",
    "pIC50": "< 4.40"
  }
]

###

pIC50: −log10 of the molar value.
Recorded below: pIC50, system UniProt P00742.
Sequence (P00742 235-488 limits assumed): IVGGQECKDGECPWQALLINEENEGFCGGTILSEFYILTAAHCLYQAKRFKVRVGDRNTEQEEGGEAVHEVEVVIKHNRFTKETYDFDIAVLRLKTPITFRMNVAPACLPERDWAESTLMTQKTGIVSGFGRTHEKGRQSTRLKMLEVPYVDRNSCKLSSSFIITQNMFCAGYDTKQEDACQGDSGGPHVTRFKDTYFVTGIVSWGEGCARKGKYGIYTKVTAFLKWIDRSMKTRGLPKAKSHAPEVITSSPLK
Sequence (P00742 41-179 partner limits assumed): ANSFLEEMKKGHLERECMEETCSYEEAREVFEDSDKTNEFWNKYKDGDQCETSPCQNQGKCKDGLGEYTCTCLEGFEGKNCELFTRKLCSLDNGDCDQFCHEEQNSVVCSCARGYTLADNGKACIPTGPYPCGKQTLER

[
  {
    "GIVEN SMILES": "Clc1cc2c(NCC34CC(COc5ccn6ccnc6c5)(C3)C4)ccnc2[nH]1",
    "pIC50": "5.52 to 6.00"
  },
  {
    "GIVEN SMILES": "Cn1ccc(OCC23CC(CNc4cccc5c(N)nccc45)(CO2)C3)cc1=O",
    "pIC50": "< 4.40"
  },
  {
    "GIVEN SMILES": "Nc1nccc2c(NCC34CC(COc5ccn6cc(C(F)F)nc6c5)(CO3)C4)cccc12",
    "pIC50": "4.40 to 5.00"
  },
  {
    "GIVEN SMILES": "Cc1cnc2ccc(OCC34CC(CNc5cccc6c(N)nccc56)(CO3)C4)cn12",
    "pIC50": "4.40 to 5.00"
  },
  {
    "GIVEN SMILES": "Cn1ccc(OCC23CN(C(=O)OCc4ccccc4)C(CNc4cccc5c(N)nccc45)(C2)C3)cc1=O",
    "pIC50": "< 4.40"
  },
  {
    "GIVEN SMILES": "Cn1ccc(OCC23CN(C(=O)Oc4ccccc4)C(CNc4cccc5c(N)nccc45)(C2)C3)cc1=O",
    "pIC50": "< 4.40"
  },
  {
    "GIVEN SMILES": "Clc1ccc(NCC23CC(COc4ccn5ccnc5c4)(CCO2)C3)cc1",
    "pIC50": "< 4.40"
  },
  {
    "GIVEN SMILES": "Nc1nccc2c(NCC34CC(COc5ccc6nnc(C(F)F)n6c5)(CO3)C4)cccc12",
    "pIC50": "< 4.40"
  }
]

###

# pIC50 values compiled below
TARGET DESC: Human Factor XIIa (Homo sapiens)
Sequence (P00748 373-615 limits assumed): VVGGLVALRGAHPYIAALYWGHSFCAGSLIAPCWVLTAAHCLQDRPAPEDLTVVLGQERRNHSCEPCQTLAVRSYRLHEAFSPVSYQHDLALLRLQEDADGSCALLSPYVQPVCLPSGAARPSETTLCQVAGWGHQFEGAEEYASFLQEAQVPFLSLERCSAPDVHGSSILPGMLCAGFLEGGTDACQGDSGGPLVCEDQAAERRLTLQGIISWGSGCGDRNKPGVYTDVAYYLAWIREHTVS
Sequence (P00748 20-372 partner limits assumed): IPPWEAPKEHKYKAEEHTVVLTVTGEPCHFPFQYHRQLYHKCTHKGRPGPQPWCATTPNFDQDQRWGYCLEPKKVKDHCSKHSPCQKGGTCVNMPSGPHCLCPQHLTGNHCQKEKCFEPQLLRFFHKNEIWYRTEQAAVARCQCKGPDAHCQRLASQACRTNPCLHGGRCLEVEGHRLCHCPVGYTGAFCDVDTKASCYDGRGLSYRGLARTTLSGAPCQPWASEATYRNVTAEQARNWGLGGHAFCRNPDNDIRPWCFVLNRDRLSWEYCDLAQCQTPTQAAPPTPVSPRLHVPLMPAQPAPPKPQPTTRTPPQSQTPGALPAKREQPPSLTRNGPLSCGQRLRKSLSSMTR
pIC50: −log10 of the molar value.
RESULT TYPE: pIC50

[
  {
    "COMPOUND": "CC1(C)NC(=O)c2ccc(OCC34COC(CNc5cccc6c(N)nccc56)(C3)C4)cc21",
    "RESULT": "6.52 to 7.00"
  },
  {
    "COMPOUND": "Nc1nccc2c(NCC34CC(COc5ccn6c(C(F)(F)F)cnc6c5)(CCO3)C4)cccc12",
    "RESULT": "6.52 to 7.00"
  },
  {
    "COMPOUND": "Cn1ccc(OCC23CN(C(=O)CCc4ccccc4)C(CNc4cccc5c(N)nccc45)(C2)C3)cc1=O",
    "RESULT": "7.00 to 8.00"
  },
  {
    "COMPOUND": "Nc1nccc2c(NCC34CC(COC5CCn6ccnc6C5)(C3)C4)cccc12 (racemic) [Example 1002]",
    "RESULT": "6.52 to 7.00"
  },
  {
    "COMPOUND": "c1cc(NCC23CC(COc4ccn5ccnc5c4)(C2)C3)c2cc[nH]c2n1",
    "RESULT": "4.40 to 5.00"
  },
  {
    "COMPOUND": "Cc1cc(OCC23CCOC(CNc4cccc5c(N)nccc45)(C2)C3)cc2nccn12",
    "RESULT": "7.00 to 8.00"
  },
  {
    "COMPOUND": "Nc1nccc2c(NCC34CC(COc5ccc6ncc(C(F)F)n6c5)(CO3)C4)cccc12",
    "RESULT": "6.00 to 6.52"
  },
  {
    "COMPOUND": "CN1Cc2cc(OCC34CN(C(=O)OCc5ccccc5)C(CNc5cccc6c(N)nccc56)(C3)C4)ccc2C1=O",
    "RESULT": "7.00 to 8.00"
  },
  {
    "COMPOUND": "Nc1nccc2c(NCC34CC(COc5ccn6cc(C(F)F)nc6c5)(CO3)C4)cccc12",
    "RESULT": "6.00 to 6.52"
  },
  {
    "COMPOUND": "Nc1nccc2c(NCC34CC(COc5ccc6nncn6c5)(CO3)C4)cccc12",
    "RESULT": "5.52 to 6.00"
  },
  {
    "COMPOUND": "Nc1nccc2c(NCC34CC(COc5ccn6ccnc6n5)(CO3)C4)cccc12",
    "RESULT": "6.52 to 7.00"
  },
  {
    "COMPOUND": "Cc1cc2c(NCC34CC(COc5ccn6ccnc6c5)(CCO3)C4)ccnc2[nH]1",
    "RESULT": "5.52 to 6.00"
  },
  {
    "COMPOUND": "Cn1ccc(OCC23CN(C(=O)CCc4cccc(C#N)c4)C(CNc4cccc5c(N)nccc45)(C2)C3)cc1=O",
    "RESULT": "7.00 to 8.00"
  },
  {
    "COMPOUND": "Cn1ccc(OCC23CC(CNc4cccc5c(N)nccc45)(CN2C(=O)OCc2ccccn2)C3)cc1=O",
    "RESULT": "6.52 to 7.00"
  },
  {
    "COMPOUND": "Nc1nccc2c(NCC34CC(COC5CCn6ccnc6C5)(CCO3)C4)cccc12 (stereo not shown)",
    "RESULT": "6.00 to 6.52"
  },
  {
    "COMPOUND": "Nc1nccc2c(NCC34COC(COc5ccn6ccnc6c5)(C3)C4)cccc12",
    "RESULT": "7.00 to 8.00"
  },
  {
    "COMPOUND": "Nc1nccc2c(NCC34CC(COc5ccc6nccn6c5)(CCO3)C4)cccc12",
    "RESULT": "7.00 to 8.00"
  },
  {
    "COMPOUND": "Cc1cc(OCC23CCOC(CNc4cccc5c(N)nccc45)(C2)C3)cc(=O)n1C",
    "RESULT": "7.00 to 8.00"
  },
  {
    "COMPOUND": "CC(C)n1ccc(OCC23CCOC(CNc4cccc5c(N)nccc45)(C2)C3)cc1=O",
    "RESULT": "6.00 to 6.52"
  },
  {
    "COMPOUND": "Cn1ccc(OCC23CN(C(=O)OCc4ccccc4)C(CNc4cccc5c(N)nccc45)(C2)C3)cc1=O",
    "RESULT": "7.00 to 8.00"
  },
  {
    "COMPOUND": "Cn1ccc(OCC23CN(C(=O)CCc4ccc5cccnc5c4)C(CNc4cccc5c(N)nccc45)(C2)C3)cc1=O",
    "RESULT": "7.00 to 8.00"
  },
  {
    "COMPOUND": "Cc1c(OCC23COC(CNc4cccc5c(N)nccc45)(C2)C3)ccc2nccn12",
    "RESULT": "7.00 to 8.00"
  },
  {
    "COMPOUND": "Cn1ccc(OCC23CN(c4nccc(-c5ccccc5)n4)C(CNc4cccc5c(N)nccc45)(C2)C3)cc1=O",
    "RESULT": "6.52 to 7.00"
  },
  {
    "COMPOUND": "Cn1ccc(OCC23CN(C(=O)CCc4cccc5ncccc45)C(CNc4cccc5c(N)nccc45)(C2)C3)cc1=O",
    "RESULT": "7.00 to 8.00"
  },
  {
    "COMPOUND": "Clc1cc2c(NCC34CC(COc5ccc6nccn6c5)(CCO3)C4)ccnc2[nH]1",
    "RESULT": "5.52 to 6.00"
  },
  {
    "COMPOUND": "Nc1nccc2c(NCC34CC(COc5cc(C(F)(F)F)c6nccn6c5)(CO3)C4)cccc12",
    "RESULT": "6.52 to 7.00"
  },
  {
    "COMPOUND": "Cc1cnc2cc(OCC34CCOC(CNc5cccc6c(N)nccc56)(C3)C4)ccn12",
    "RESULT": "7.00 to 8.00"
  },
  {
    "COMPOUND": "Nc1nccc2c(NCC34CC(COc5ccc6nncn6c5)(CCO3)C4)cccc12",
    "RESULT": "6.00 to 6.52"
  },
  {
    "COMPOUND": "Clc1ccc2c(NCC34CC(COc5ccn6ccnc6c5)(CCO3)C4)ccnc2c1",
    "RESULT": "4.00 to 4.40"
  },
  {
    "COMPOUND": "Cn1ccc(OCC23CN(C(=O)CCc4cccc(Br)c4)C(CNc4cccc5c(N)nccc45)(C2)C3)cc1=O",
    "RESULT": "7.00 to 8.00"
  },
  {
    "COMPOUND": "Nc1nccc2c(NCC34CC(COc5ccc6c(c5)CCNC6=O)(CO3)C4)cccc12",
    "RESULT": "6.52 to 7.00"
  }
]

Each recorded value in this set is attributed to patent US20240327412A1.
